Recorded values, source patent US20180171001A1.

# Assay System: Env of HIV-1 strain 3365.v2.c20 (HIV-1)
# Assay Summary: cell-based or functional assay
For each entry below, report its neutralization IC50 value.

// γ3κ3 (antibody, V domains shown) VH: QIHLVQSGTEVKKPGSSVTVSCKAYGVNTFGLYAVSWVRQAPGQRLEYIGQIRRWKSSASHHFRGRVTVSAVDPTGSSPPISSLEIRDLTTDDTAVYFCTTTSTSDYWSGLHNERGTAFSSWGQGTLISVSA VL: DIQMTQSPSTLSASIGDTVRISCRASQSITGNWLAWYHQRPGKAPRLLIYRGSRLLGGVPSRFSGSAAGTDFTLTIANLQAEDFGTFYCQQYDTYPGTFGQGTKVEVKR : neutralization IC50 value = > 15 µg/mL

For this binder ( γ23κ11 (antibody, V domains shown) VH: QIHLVQSGTEVKKPGSSVTVSCKAYGVNTFGLYAVNWVRQAPGQSLEYIGQIWRWKSSASHHFRGRVIISAVDLTGSSPPISSLEIKNLTSDDTAVYFCTTTSTSDYWSGLHHDGVMAFSSWGQGTLISVSA VL: DIQMTQSPSTLSASVGGTVRISCRASQSITGGWLAWYHQRPGKAPRLLIYRGSRLLGGVPSRFSGSAAGTDFTLTIANLQAEDFGTFYCQQYDTYPGTFGQGTKVEVKR ), measured neutralization IC50 is > 15 µg/mL

Entry γ20κ11 (antibody, V domains shown) VH: QIHLVQSGTEVKKPGSSVAVSCKAYGVNTFGLYAVNWVRQAPGQSLEYIGQIWRWKSSASHDFRGRVIISAVDLTGSSPPISSLEIKNLTSDDTAVYFCTATSTPDYWSGLHHDGVMAFSSWGQGTLISVSA VL: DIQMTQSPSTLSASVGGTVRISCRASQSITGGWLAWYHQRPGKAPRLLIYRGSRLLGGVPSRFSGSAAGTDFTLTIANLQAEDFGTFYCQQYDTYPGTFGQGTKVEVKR , neutralization IC50 reported as > 15 µg/mL
